# System: UO-31 renal
# measurementNotes: NCI tumour cell line growth inhibition, 48 h; in the data active = GI50 below about 0.43 µM; inactive = the rest
Bench note: report the call from TRUE (active), FALSE (inactive)

Solved entries (count: 5):
| compound | categoryLabel |
| --- | --- |
| Nc1cc(NN=C(c2ccc(O)cc2)c2ccc(O)cc2)c([N+](=O)[O-])cc1[N+](=O)[O-] | FALSE |
| CCC(=C/[C@H](C)C/C=C/C(C)=C/[C@@H](C)C(=O)[C@@H](C)[C@H](O)[C@@H](C)CC)/C=C/[C@H]1OC(=O)C=C[C@@H]1C | TRUE |
| CN1CC[C@@H](NC(=O)Nc2ccc(C#N)cc2)C[C@@H]1c1nc2ccccc2[nH]1 | FALSE |
| COC[C@H]1Cn2cc(-c3nc(Nc4ccnn4C)ncc3C)nc2C(=O)N1Cc1ccc(F)c(F)c1 | FALSE |
| Cn1ccc2c3c(Oc4ccc(NC(N)=O)cc4)ccnc3ccc21 | FALSE |

query: Could you check what this test reported for COc1ccc(C2[C@@H](c3ccccc3)C(=O)N2c2cc(OC)c(OC)c(OC)c2)cc1F (some centres undefined) ?
result: TRUE

query: Please state the recorded outcome for this compound: COc1ccc(-c2cn[nH]c2-c2cc(OC)c(OC)c(OC)c2)cc1
result: TRUE

query: Could you please tell me the result logged for Nc1ccccc1SC(CC(=O)c1ccccc1)c1cccc([N+](=O)[O-])c1 (centres undefined) in this assay?
result: FALSE

query: Could you please tell me the result logged for COc1ccc2[nH]cc(/C=C(/C)c3ccncc3)c2c1 in this assay?
result: FALSE
